Numbers sourced from PubChem BioAssay AID2060906.

- System: 485176-168-R4-J1-PDC complex spheroid growth;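 further: spheroids exposed to compounds for seven days before readout; luminescence viability expressed relative to DMSO vehicle wells set as 100%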
- assay protocol: Anticancer human tumor 485176-168-R4-J1-PDC patient-derived pancreatic adenocarcinoma cell line growth inhibition [RAS]
- condition set: second compound 0.1 µM; first compound 1 µM; active compounds read low
measured property: viability, T/C (%)

molecule | reading
CCN1CCN(Cc2ccc(Nc3ncc(F)c(-c4cc(F)c5nc(C)n(C(C)C)c5c4)n3)nc2)CC1 + C#Cc1c(F)ccc2cc(O)cc(-c3ncc4c(N5CC6CCC(C5)N6)nc(OCC56CCCN5CC(F)C6)nc4c3F)c12 | 55.4
CCN1CCN(Cc2ccc(Nc3ncc(F)c(-c4cc(F)c5nc(C)n(C(C)C)c5c4)n3)nc2)CC1 + C=CC(=O)N1CCN(c2nc(OCC3CCCN3C)nc3c(F)c(-c4nc(N)cc(C)c4C(F)(F)F)c(Cl)cc23)C(C)C1 | 68.1
NC1c2ccccc2OC12CCN(c1cnc3c(N4CCCc5ncccc54)n[nH]c3n1)CC2 (stereo not given) + C=CC(=O)N1CCN(c2nc(OCC3CCCN3C)nc3c(F)c(-c4nc(N)cc(C)c4C(F)(F)F)c(Cl)cc23)C(C)C1 | 72.6
CC(Nc1ccc2c(c1)OCCn1cc(N3C(=O)OCC3C(F)F)nc1-2)C(N)=O (stereo not given) + C=CC(=O)N1CCN(c2nc(OCC3CCCN3C)nc3c(F)c(-c4nc(N)cc(C)c4C(F)(F)F)c(Cl)cc23)C(C)C1 | 60.2
CCC(CC)c1cc(NC2CCC(N)C2)n2nccc2n1 (stereo not given) + C=CC(=O)N1CCN(c2nc(OCC3CCCN3C)nc3c(F)c(-c4nc(N)cc(C)c4C(F)(F)F)c(Cl)cc23)C(C)C1 | 88.8
